# testProtocol: Acute intervention: nutrikinetics of plasma metabolites after ingestion of O. europaea extract (untargeted HPLC-ESI-QTOF-MS)
# experimentalSetup: 6 h after O. europaea extract
observationType: mean chromatographic area in plasma, T6
The answer should be written as a number, with no unit following it.

mean chromatographic area in plasma, T6 for Oc1cc(O)c2c(c1)O[C@H](c1ccc(O)c(O)c1)[C@H](O)[C@H]2SCc1ccccc1 [4β-benzylthioepicatechin] ?
0

Field entry: O=C(O)CCCCCCCCC(=O)O [decanedioic acid isomer 2, decanedioic acid]
84

Field entry: O=C(/C=C/C1=CC(=O)C(=O)C=C1)OC1CC(O)(C(=O)O)CC(O)C1O (stereo not drawn)
11

###

Kindly supply the reported mean chromatographic area in plasma, T10 values for the records listed here.
# testProtocol: Acute intervention: nutrikinetics of plasma metabolites after ingestion of L. citriodora extract (untargeted HPLC-ESI-QTOF-MS)
# experimentalSetup: 10 h after L. citriodora extract

mean chromatographic area in plasma, T10 for Cc1cccc(O)c1O ?
58

Field entry: COc1cc(C=CC(=O)O)ccc1OS(=O)(=O)O [ferulic acid 4-sulfate]
39

Field entry: CC1=CC(=O)CC(C)(C)C1(O)/C=C/C(C)=C/COC1OC(CO)C(O)C(O)C1O (single isomer, unassigned; isomer 1) [abscisic alcohol 11-glucoside isomer 1, abscisic alcohol 11-glucoside]
0

Field entry: COc1cc(CCCO)ccc1OC1OC(CO)C(O)C(O)C1O (single isomer, unassigned; isomer 1) [dihydroconiferin isomer 1, dihydroconiferin]
0

Field entry: CC1=CC(=O)CC(C)(C)C1(O)/C=C/C(C)=C/COC1OC(CO)C(O)C(O)C1O (single isomer, unassigned; isomer 2) [abscisic alcohol 11-glucoside isomer 2, abscisic alcohol 11-glucoside]
0

Field entry: CC(C)=C1CC2(C)C(=CC1=O)CCC(OC1OC(CO)C(O)C(O)C1O)C2C (stereo not shown) [isopetasoside]
0

Field entry: CC(O)/C=C\C/C=C\C/C=C\CCCCCCCC(=O)O (stereo not shown) [17-hydroxylinolenic acid]
20

###

# testProtocol: Acute intervention: nutrikinetics of plasma metabolites after ingestion of O. europaea extract (untargeted HPLC-ESI-QTOF-MS)
# experimentalSetup: 2 h after O. europaea extract
Where a name gives a salt, the structure may show the parent alone.
mean chromatographic area in plasma, T2 under 80 gets 1.0, anything at or over 80 gets 0.0.

Consider the molecule COc1cc(CCO)ccc1OS(=O)(=O)O [homovanillyl alcohol sulfate] . Is its mean chromatographic area in plasma, T2 strictly less than 80?
0.0

Field entry: COc1cc(C=CC(=O)O)ccc1OS(=O)(=O)O [ferulic acid 4-sulfate]
0.0

Field entry: O=C(Oc1cc(O)c2c(c1)O[C@H](c1cc(O)c(O)c(O)c1)[C@H](O)C2)c1cc(O)c(O)c(O)c1 [epigallocatechin 7-O-gallate]
1.0

Field entry: COc1cc(C(=O)O)ccc1OC1OC(C(=O)O)C(O)C(O)C1O (centres unmarked) [vanillic acid glucuronide]
1.0

Field entry: OC[C@H]1O[C@@H](OCc2ccoc2)[C@H](O)[C@@H](O)[C@@H]1O (single isomer, unassigned; isomer 1) [3-furanmethanol glucoside isomer 1, 3-furanmethanol glucoside]
0.0

###

# testProtocol: Acute intervention: nutrikinetics of plasma metabolites after ingestion of O. europaea extract (untargeted HPLC-ESI-QTOF-MS)
# experimentalSetup: 1 h after O. europaea extract
# Procedure: A total of 25 healthy individuals participated, with an average age of 27 ± 9 years and a mean body mass index (BMI) of 23 ± 3 kg/m^2. […] Metabolite nutrikinetics were studied using PKSolver, an add-in program for pharmacokinetic data analysis in Microsoft Excel. The time to reach the maximum concentration (observed Tmax) was calculated for each significant metabolite. As an untargeted metabolomic approach was used to detect the circulating metabolites, these were not quantified. […]
Kindly supply the reported mean chromatographic area in plasma, T1 values for the records listed here.
The answer should be written as a number, with no unit following it.

mean chromatographic area in plasma, T1 for Cc1cccc(O)c1O ?
235

Field entry: COC(=O)C1=CO[C@H](O)/C(=C/CO)[C@@H]1CC(=O)OCCc1ccc(O)c(O)c1 [10-hydroxyoleuropein aglycone]
142

Field entry: COc1cc(C(=O)O)ccc1OS(=O)(=O)O [vanillic acid 4-O-sulfate isomer 1, vanillic acid 4-O-sulfate]
489

Field entry: COc1cc(C)cc(OC)c1OC
221

###

# testProtocol: Acute intervention: nutrikinetics of plasma metabolites after ingestion of O. europaea extract (untargeted HPLC-ESI-QTOF-MS)
# experimentalSetup: 4 h after O. europaea extract
# Description: A total of 25 healthy individuals participated, with an average age of 27 ± 9 years and a mean body mass index (BMI) of 23 ± 3 kg/m^2. […] Metabolite nutrikinetics were studied using PKSolver, an add-in program for pharmacokinetic data analysis in Microsoft Excel. The time to reach the maximum concentration (observed Tmax) was calculated for each significant metabolite. As an untargeted metabolomic approach was used to detect the circulating metabolites, these were not quantified. […]
Kindly supply the reported mean chromatographic area in plasma, T4 values for the records listed here.
The answer should be written as a number, with no unit following it.

mean chromatographic area in plasma, T4 for COc1cc(C=CC(=O)O)ccc1OS(=O)(=O)O [ferulic acid 4-sulfate] ?
22

Field entry: COc1cc(C)cc(OC)c1OC [1,2,3-trimethoxy-5-methyl benzene]
0

Field entry: O=C(O)CCCCCCCCC(=O)O [decanedioic acid isomer 1, decanedioic acid]
167

Field entry: COc1cc(-c2oc3cc(O[C@@H]4O[C@@H](C)[C@H](O)[C@@H](O)[C@H]4O)cc(O)c3c(=O)c2O[C@@H]2O[C@H](CO)[C@@H](O)[C@H](O)[C@H]2O)ccc1O
0

Field entry: Cc1cccc(O)c1O [3-methylcatechol]
64

Field entry: OC[C@H]1O[C@@H](OCc2ccoc2)[C@H](O)[C@@H](O)[C@@H]1O (single isomer, unassigned; isomer 1) [3-furanmethanol glucoside isomer 1, 3-furanmethanol glucoside]
107

Field entry: COc1cc(C(=O)O)ccc1OC1OC(C(=O)O)C(O)C(O)C1O (stereo not drawn) [vanillic acid glucuronide]
63

Field entry: C[C@]12CC[C@@H](O[C@@H]3O[C@H](C(=O)O)[C@@H](O)[C@H](O)[C@H]3O)C[C@@H]1CC[C@@H]1[C@@H]2C(=O)C[C@@]2(C)[C@H]1CC[C@]2(O)[C@@H](O)CO [cortolone-3-glucuronide]
160

Field entry: O=C(/C=C/C1=CC(=O)C(=O)C=C1)OC1CC(O)(C(=O)O)CC(O)C1O (stereo not drawn) [chlorogenoquinone]
12

###

# testProtocol: Acute intervention: nutrikinetics of plasma metabolites after ingestion of L. citriodora extract (untargeted HPLC-ESI-QTOF-MS)
# experimentalSetup: 0.5 h after L. citriodora extract
Structures can show the parent of a compound that is named as a salt.
Please use MET whenever mean chromatographic area in plasma, T0.5 is not below 30, and NOT MET whenever it is.

Check if mean chromatographic area in plasma, T0.5 >= 30 (inclusive). Item: COc1cc(/C=C/C(=O)O)ccc1O[C@@H]1O[C@H](C(=O)O)[C@@H](O)[C@H](O)[C@H]1O [ferulic acid 4-O-glucuronide]
NOT MET

Field entry: CC1=CC(=O)CC(C)(C)C1(O)/C=C/C(C)=C/COC1OC(CO)C(O)C(O)C1O (single isomer, unassigned; isomer 3) [abscisic alcohol 11-glucoside isomer 3, abscisic alcohol 11-glucoside]
MET

Field entry: COc1cc(C=CC(=O)O)ccc1OS(=O)(=O)O [ferulic acid 4-sulfate]
MET

Field entry: CC(O)/C=C\C/C=C\C/C=C\CCCCCCCC(=O)O (centres unmarked) [17-hydroxylinolenic acid]
MET

Field entry: COc1cc(CCCO)ccc1OC1OC(CO)C(O)C(O)C1O (single isomer, unassigned; isomer 1) [dihydroconiferin isomer 1, dihydroconiferin]
MET

Field entry: Cc1cccc(O)c1O
NOT MET

Field entry: COc1cc(CCO)ccc1OS(=O)(=O)O [homovanillyl alcohol sulfate]
NOT MET

Field entry: COc1cc(C(=O)O)ccc1OS(=O)(=O)O [vanillic acid 4-O-sulfate isomer 2, vanillic acid 4-O-sulfate]
NOT MET

###

Kindly supply the reported mean chromatographic area in plasma, T4 values for the records listed here.
# testProtocol: Acute intervention: nutrikinetics of plasma metabolites after ingestion of L. citriodora extract (untargeted HPLC-ESI-QTOF-MS)
# experimentalSetup: 4 h after L. citriodora extract
The answer should be written as a number, with no unit following it.

mean chromatographic area in plasma, T4 for CC1=CC(=O)CC(C)(C)C1(O)/C=C/C(C)=C/COC1OC(CO)C(O)C(O)C1O (single isomer, unassigned; isomer 2) [abscisic alcohol 11-glucoside isomer 2, abscisic alcohol 11-glucoside] ?
23

Field entry: COc1cc(C(=O)O)ccc1OS(=O)(=O)O [vanillic acid 4-O-sulfate isomer 1, vanillic acid 4-O-sulfate]
395

Field entry: COc1cc(C=CC(=O)O)ccc1OS(=O)(=O)O [ferulic acid 4-sulfate]
230

Field entry: COc1cc(C(=O)O)ccc1OS(=O)(=O)O [vanillic acid 4-O-sulfate isomer 2, vanillic acid 4-O-sulfate]
0

Data provenance is paper PMC11544713.
